# STUDY_TARGET: T1, Human MEF2B (residues 1-93 of SEQ ID NO:2) (human, UniProt Q02080 1-93)
# T1 construct: Symmetric homodimer; In ITC it was used free; For the crystals it was expressed as a fusion with Cabin1 (cleaved with PreScission protease) or with MITR; also called MEF2B (1-93); MADS-box/MEF2S domain
# T1 sequence: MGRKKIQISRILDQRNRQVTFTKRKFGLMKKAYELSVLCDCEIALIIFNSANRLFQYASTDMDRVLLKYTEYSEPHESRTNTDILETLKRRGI
# TEST_SUMMARY: ITC, 30 °C, peptide titrated into 50 µM MEF2B (1-93)
EXPERIMENTAL_ENDPOINT: pKd
Scale for pKd: -log10 of concentration given in mol/L; no unit attached.

Summary for this binder, RAVASTEVKQKLQEFLLSK (also called 19-mer peptide of HDAC9) [HDAC9 peptide RAVASTEVKQKLQEFLLSK (19 residues)] : pKd is 6.14

Origin of the recorded values: patent US20060160201A1
